# pest or weed control at 125 g/ha per entry
system: Avena fatua (AVEFA); experiment: Test 1B glasshouse assay for herbicidal activity, post-emergence; type: in vivo; settings: 360 h, 125 g/ha application rate
Give your result in % as a bare value.

In the examples that follow, each entry is paired with its recorded pest or weed control at 125 g/ha.
Given the compound CC#Cc1cc(C)c(C2C(=O)C3CCC(C3)C2=O)c(OC)c1 (centres unmarked) , what is its reported pest or weed control at 125 g/ha?
40

How about this compound: CC#Cc1cc(C)c(C2C(=O)CC(c3ccccn3)CC2=O)c(C)c1 (centres unmarked)
20

How about this compound: Cc1cc(C)c(C2C(=O)C3CCC(C3)C2=O)c(C)c1 (centres unmarked) [Compound X-9, reference compound]
0

How about this compound: CC#Cc1cc(C)c(C2=C(OC(=O)OC)CC(c3ccccn3)CC2=O)c(C)c1 (centres unmarked)
60

Please turn your attention to the following entry.
Given the compound CC#Cc1cc(C)c(C2C(=O)C3CCC(C3)C2=O)c(C)c1 (centres unmarked) , what is its reported pest or weed control at 125 g/ha?
80

----------
tested on: Abutilon theophasti Medik. (ABUTH); assay: Test 1A glasshouse assay for herbicidal activity, post-emergence; format: in vivo; details: 312 h, 30 g/ha, evaluated after 13 days, read-out: percentage phytotoxicity ABUTH
Kindly return Condition met if reported pest or weed control at 30 g/ha is no lower than 30%; return Condition not met if it is lower.

Could you please find out whether CC#Cc1cc(C)c(C2C(=O)CC(CC(C)SC)CC2=O)c(C)c1 (stereo not drawn) [Compound A-24] has pest or weed control at 30 g/ha that meets 30% or exceeds it?
Condition not met

How about this compound: CC#Cc1cc(Cl)c(C2C(=O)CCCC2=O)c(OC)c1 [Compound A-22]
Condition not met

How about this compound: CC#Cc1cc(Cl)c(C2C(=O)CC3(CCOCC3)CC2=O)c(OC)c1 [Compound A-20]
Condition met

How about this compound: CC#Cc1cc(Cl)c(C2=C(OC(=O)c3ccc(Cl)cc3)CC(C3CCOCC3)CC2=O)c(OC)c1 (stereo not drawn) [Compound P-3]
Condition met

How about this compound: CC#Cc1cc(C)c(C2=C(OC(=O)C(C)(C)C)C3CCC(C3)C2=O)c(C)c1 (stereo not drawn) [Compound P-5]
Condition not met

How about this compound: CC#Cc1cc(C)c(C2C(=O)CC(CCSC)CC2=O)c(C)c1 (stereo not drawn) [Compound A-21]
Condition not met

---
Could you please find out whether CC#Cc1cc(C)c(C2C(=O)CC(c3ccccn3)CC2=O)c(C)c1 (stereo not drawn) [Compound A-13] has pest or weed control at 30 g/ha that meets 30% or exceeds it?
Condition met

How about this compound: CC#Cc1cc(Cl)c(C2C(=O)C3CCC(C3)C2=O)c(OCC)c1 (stereo not drawn) [Compound A-16]
Condition met

----------
tested on: Setaria faberi (SETFA); assay: Test 1A glasshouse assay for herbicidal activity, post-emergence; type: in vivo; conditions: 312 h, 250 g/ha, evaluated after 13 days, read-out: percentage phytotoxicity SETFA
reported.property: pest or weed control at 250 g/ha (%)
Give your result in % as a bare value.

Given the compound CC#Cc1cc(Cl)c(C2C(=O)C3CCC(C3)C2=O)c(OCC)c1 (stereo not drawn) , what is its reported pest or weed control at 250 g/ha?
100

How about this compound: CCC#Cc1cc(Cl)c(C2C(=O)C3CCC(C3)C2=O)c(OC)c1 (stereo not drawn)
90

How about this compound: "CC#Cc1cc(Cl)c(C2C(=O)CC3(CCOCC3)CC2=O)c(OC)c1"
100

How about this compound: CC#Cc1ccc(C2C(=O)C3CCC(C3)C2=O)c(Cl)c1 (stereo not drawn)
100

---
Given the compound CC#Cc1cc(C)c(C2C(=O)CC(CC3CCOCC3)CC2=O)c(C)c1 (stereo not drawn) , what is its reported pest or weed control at 250 g/ha?
90

How about this compound: C#Cc1cc(Cl)c(C2C(=O)C3CCC(C3)C2=O)c(OC)c1 (stereo not drawn)
90

How about this compound: CC#Cc1cc(Cl)c(C2C(=O)C3CCC(C3)C2=O)c(OCC(F)(F)F)c1 (stereo not drawn)
90

How about this compound: CC#Cc1cc(Cl)c(C2C(=O)C3CCC(C3)C2=O)c(CC)c1 (stereo not drawn)
80

How about this compound: "CC#Cc1ccc(C2C(=O)C(C)(C)OC(C)(C)C2=O)c(C)c1"
70
